Measurement Target: Receptor-type tyrosine-protein kinase FLT3 (Homo sapiens, UniProt P36888)
Sequence (P36888 whole entry): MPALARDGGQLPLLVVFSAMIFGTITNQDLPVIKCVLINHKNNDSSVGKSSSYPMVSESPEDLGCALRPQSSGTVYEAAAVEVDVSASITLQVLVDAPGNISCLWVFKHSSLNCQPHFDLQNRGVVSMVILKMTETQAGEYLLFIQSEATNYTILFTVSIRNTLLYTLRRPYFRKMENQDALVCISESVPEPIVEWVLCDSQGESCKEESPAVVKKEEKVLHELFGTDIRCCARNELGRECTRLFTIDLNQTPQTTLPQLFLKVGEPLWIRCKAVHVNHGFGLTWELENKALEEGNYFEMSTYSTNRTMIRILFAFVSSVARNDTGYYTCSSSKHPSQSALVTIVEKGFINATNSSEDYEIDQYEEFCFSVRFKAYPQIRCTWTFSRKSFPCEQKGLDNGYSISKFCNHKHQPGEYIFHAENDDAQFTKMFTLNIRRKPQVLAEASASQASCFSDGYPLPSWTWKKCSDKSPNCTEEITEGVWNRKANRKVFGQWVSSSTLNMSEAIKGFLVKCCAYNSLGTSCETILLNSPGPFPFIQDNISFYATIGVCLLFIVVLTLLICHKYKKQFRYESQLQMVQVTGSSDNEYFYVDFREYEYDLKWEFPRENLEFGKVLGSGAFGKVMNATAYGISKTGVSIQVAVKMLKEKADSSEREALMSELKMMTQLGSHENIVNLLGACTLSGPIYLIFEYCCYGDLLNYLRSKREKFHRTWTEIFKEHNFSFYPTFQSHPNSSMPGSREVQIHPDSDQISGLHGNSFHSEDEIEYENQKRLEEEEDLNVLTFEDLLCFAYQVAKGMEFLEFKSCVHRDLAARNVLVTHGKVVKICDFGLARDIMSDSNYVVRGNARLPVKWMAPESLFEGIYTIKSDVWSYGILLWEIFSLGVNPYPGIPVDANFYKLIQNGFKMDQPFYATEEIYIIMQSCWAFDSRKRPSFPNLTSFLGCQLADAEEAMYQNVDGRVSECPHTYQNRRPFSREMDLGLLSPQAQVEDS
Test Method Notes: Inhibition of recombinant FLT3 phosphorylation transfected in mouse embryonic fibroblast
Measurement Type: pIC50
Keep it numeric: pIC50 is minus log10 of the concentration in mol/L.

Name the reported pIC50 value associated with the compound Cc1cc(O)cc2oc(=O)c3c(O)cc(O)cc3c12
5.41

###

Assignment: determine reported IC50 for the given molecules.
Measurement Target: Vascular endothelial growth factor receptor 3 (Homo sapiens, UniProt P35916)
Sequence (P35916 whole entry): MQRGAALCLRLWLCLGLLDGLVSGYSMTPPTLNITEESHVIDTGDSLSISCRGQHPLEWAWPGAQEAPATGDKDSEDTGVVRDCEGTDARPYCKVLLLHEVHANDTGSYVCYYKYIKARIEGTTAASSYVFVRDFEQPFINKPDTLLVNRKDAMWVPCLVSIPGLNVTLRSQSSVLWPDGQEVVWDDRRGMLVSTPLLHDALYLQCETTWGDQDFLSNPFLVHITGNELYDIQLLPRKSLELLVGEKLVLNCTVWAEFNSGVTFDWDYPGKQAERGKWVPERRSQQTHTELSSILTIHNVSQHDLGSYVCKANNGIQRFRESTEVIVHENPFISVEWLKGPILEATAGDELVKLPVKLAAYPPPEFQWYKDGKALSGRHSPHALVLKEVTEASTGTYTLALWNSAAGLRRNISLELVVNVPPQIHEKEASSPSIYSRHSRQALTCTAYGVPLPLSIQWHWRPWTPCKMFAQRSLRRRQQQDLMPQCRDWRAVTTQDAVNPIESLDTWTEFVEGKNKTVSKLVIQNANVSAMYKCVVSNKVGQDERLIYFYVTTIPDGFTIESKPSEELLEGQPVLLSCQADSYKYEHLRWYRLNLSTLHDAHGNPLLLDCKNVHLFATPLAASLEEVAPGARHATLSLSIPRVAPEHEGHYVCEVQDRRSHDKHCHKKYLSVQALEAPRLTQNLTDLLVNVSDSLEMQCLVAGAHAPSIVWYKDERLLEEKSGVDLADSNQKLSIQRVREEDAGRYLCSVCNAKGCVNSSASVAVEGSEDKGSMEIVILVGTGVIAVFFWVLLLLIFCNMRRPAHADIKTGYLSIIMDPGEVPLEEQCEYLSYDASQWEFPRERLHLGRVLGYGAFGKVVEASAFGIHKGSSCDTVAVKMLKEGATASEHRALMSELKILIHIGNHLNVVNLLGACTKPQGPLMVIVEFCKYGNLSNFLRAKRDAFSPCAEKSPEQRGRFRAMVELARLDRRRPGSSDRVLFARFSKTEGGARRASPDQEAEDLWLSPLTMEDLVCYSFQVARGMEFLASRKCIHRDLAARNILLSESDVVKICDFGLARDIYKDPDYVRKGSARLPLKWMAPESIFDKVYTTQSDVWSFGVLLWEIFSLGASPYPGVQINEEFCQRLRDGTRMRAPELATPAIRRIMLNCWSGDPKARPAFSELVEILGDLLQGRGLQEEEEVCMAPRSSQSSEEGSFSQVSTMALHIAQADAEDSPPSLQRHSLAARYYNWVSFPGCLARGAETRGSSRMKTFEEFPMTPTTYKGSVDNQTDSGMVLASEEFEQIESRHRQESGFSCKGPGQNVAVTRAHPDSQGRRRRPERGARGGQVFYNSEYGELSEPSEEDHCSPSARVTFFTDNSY
Test Method Notes: Inhibition of recombinant VEGFR3
Reported Conditions: read-out: IC50 (converted)
Form entry: value (µM) — number only.

Name the reported IC50 value associated with the molecule COc1cc(O)c(C(=O)O)c(C2=C(C)C[C@@H](O)C2=O)c1
13.3

Name the reported IC50 value associated with the molecule Cc1cc(O)cc2oc(=O)c3c(O)cc(O)cc3c12
5.03

Name the reported IC50 value associated with the molecule O=C1C[C@H](O)[C@@H]2c3c(ccc(O)c31)-c1ccc(O)c3c1[C@@]2(O)CCC3=O
7.95

Name the reported IC50 value associated with the molecule Cc1cc(O)cc2oc(=O)c3c(O)cc(OS(=O)(=O)O)cc3c12
5.03

Name the reported IC50 value associated with the molecule Cc1cc(O)c(O)cc1-c1cc(O)cc(O)c1C(=O)O
24.6
